tested on: breast cancer cell strain MD231; assay: cells; settings: 48 h
pIC50: −log10 of the molar value.

{"columns": ["compound", "pIC50"],
 "data": [
  ["NCCCNCCCCNCCCN [spermine]", 5.45]
]}
